# Assay method text: Oral bioavailability in Sprague-Dawley rat at 1.1 mg/kg
# Type: ADME, organism-based
# Applied conditions: in vivo
Observable: bioavailability (%)
Your answer is read as %, so omit the unit and give the number.

CCOc1ccc(Cc2cc([C@@H]3O[C@H](/C=N/O)[C@@H](O)[C@H](O)[C@H]3O)ccc2Cl)cc1	64

Quick one: bioavailability of CCOc1ccc(Cc2cc([C@@H]3O[C@H](/C=N/NCCO)[C@@H](O)[C@H](O)[C@H]3O)ccc2Cl)cc1 ? 7.1

---

# Assay method text: Clearance in Sprague-Dawley rat at 1 mg/kg, iv
# Assay type: ADME, organism-based
# Applied conditions: in vivo
Readings of clearance for the listed compounds
Your answer is read as mL/min/kg, so omit the unit and give the number.

CCOc1ccc(Cc2cc([C@@H]3O[C@H](/C=N/O)[C@@H](O)[C@H](O)[C@H]3O)ccc2Cl)cc1	5

Quick one: clearance of CCOc1ccc(Cc2cc([C@@H]3O[C@H](/C=N/OC)[C@@H](O)[C@H](O)[C@H]3O)ccc2Cl)cc1 ? 12.6

Quick one: clearance of CCOc1ccc(Cc2cc([C@@H]3O[C@H](CNOC)[C@@H](O)[C@H](O)[C@H]3O)ccc2Cl)cc1 ? 16.5
